Protocol text: Daytime color of polyurethane film with dye laminated to retroreflective sheeting
Format: physicochemical
Experimental setup: dye 0.2 wt.-% in aliphatic polyester polyurethane PN03.214, 0.1 mm film on Scotchlite 3970
Property: YF (fluorescence luminance factor)
Give the value as a plain number.

Query: Param item = CCCCCCCCOc1cc2c3ccccc3c(=O)c3ccc4c5ccccc5sc1c4c32 ; retrieve measured YF (fluorescence luminance factor).
Result: 11.83

Query: Another compound to check: COc1cc2c3ccccc3c(=O)c3ccc4c5ccccc5sc1c4c32 [reference compound]
Result: 9.69

Query: Same thing, different compound: CC(C)CC(CC(C)C)Oc1cc2c3ccccc3c(=O)c3ccc4c5ccccc5sc1c4c32
Result: 11.62

Query: One more compound: O=c1c2ccccc2c2cc(OCCO)c3sc4ccccc4c4ccc1c2c34 [reference compound]
Result: 10.09

---

Protocol text: Daytime color of polyurethane film with dye laminated to retroreflective sheeting
Type: physicochemical
Experimental setup: dye 0.2 wt.-% in aliphatic polyester polyurethane PN03.214, 0.1 mm film on Scotchlite 3970
Experimental: The daytime color of each article was measured using a Labsphere BFC-450 Bispectral Colorimeter commercially available from Labsphere, North Sutton, N.H. The daytime chromaticity (x,y), total luminance factor (YT), and fluorescence luminance factor (YF; which is a measure of the fluorescent properties of the article) calculated for the CIE D65 and the CIE 1931 observer are provided in TABLE II […]
Exercise: for every item that follows, state its recorded X (daytime chromaticity).
Give your answer as a number; write no unit.

Query: Recorded X (daytime chromaticity) of CC(C)CC(CC(C)C)Oc1cc2c3ccccc3c(=O)c3ccc4c5ccccc5sc1c4c32 [Example 3] , please.
Result: 0.5970

Query: Also CCCCCCCCOc1cc2c3ccccc3c(=O)c3ccc4c5ccccc5sc1c4c32 [Example 1] , if possible.
Result: 0.5739

Query: And for O=c1c2ccccc2c2cc(OCCO)c3sc4ccccc4c4ccc1c2c34 [reference compound] ?
Result: 0.6000

Query: Follow-up item: COc1cc2c3ccccc3c(=O)c3ccc4c5ccccc5sc1c4c32 [reference compound]
Result: 0.5989

---

Protocol text: Daytime color of polyurethane film with dye laminated to retroreflective sheeting
Format: physicochemical
Experimental setup: dye 0.2 wt.-% in aliphatic polyester polyurethane PN03.214, 0.1 mm film on Scotchlite 3970
Exercise: state measured y (daytime chromaticity) for each of the compounds provided.
Please respond with just the number, no unit label.

Query: Return reported y (daytime chromaticity); argument: CCCCCCCCOc1cc2c3ccccc3c(=O)c3ccc4c5ccccc5sc1c4c32 [Example 1]
Result: 0.2692

Query: Same question for O=c1c2ccccc2c2cc(OCCO)c3sc4ccccc4c4ccc1c2c34 [reference compound] please.
Result: 0.2756

Query: Now the same for CC(C)CC(CC(C)C)Oc1cc2c3ccccc3c(=O)c3ccc4c5ccccc5sc1c4c32 [Example 3]
Result: 0.2886

Query: Next: COc1cc2c3ccccc3c(=O)c3ccc4c5ccccc5sc1c4c32 [reference compound]
Result: 0.2780

---

Protocol text: Daytime color of polyurethane film with dye laminated to retroreflective sheeting
Assay type: physicochemical
Experimental setup: dye 0.2 wt.-% in aliphatic polyester polyurethane PN03.214, 0.1 mm film on Scotchlite 3970
Property: YT (total luminance factor)
Lab note: record just the number, no unit beside it.

Query: Which YT (total luminance factor) reading was recorded for the molecule CCCCCCCCOc1cc2c3ccccc3c(=O)c3ccc4c5ccccc5sc1c4c32 [Example 1] ?
Result: 17.46

Query: Same thing, different molecule: COc1cc2c3ccccc3c(=O)c3ccc4c5ccccc5sc1c4c32 [reference compound]
Result: 14.81

Query: Record: CC(C)CC(CC(C)C)Oc1cc2c3ccccc3c(=O)c3ccc4c5ccccc5sc1c4c32 [Example 3]
Result: 17.66

Query: Okay, and O=c1c2ccccc2c2cc(OCCO)c3sc4ccccc4c4ccc1c2c34 [reference compound] ?
Result: 14.71

Measured values drawn from patent US6841236B2 for this set.
